Recorded values, source patent US20060229240A1.

target-entity: T1, PTH/PTHrP receptor (P1R), wild-type, full-length (human, UniProt Q03431 27-593)
T1 sequence (looked up): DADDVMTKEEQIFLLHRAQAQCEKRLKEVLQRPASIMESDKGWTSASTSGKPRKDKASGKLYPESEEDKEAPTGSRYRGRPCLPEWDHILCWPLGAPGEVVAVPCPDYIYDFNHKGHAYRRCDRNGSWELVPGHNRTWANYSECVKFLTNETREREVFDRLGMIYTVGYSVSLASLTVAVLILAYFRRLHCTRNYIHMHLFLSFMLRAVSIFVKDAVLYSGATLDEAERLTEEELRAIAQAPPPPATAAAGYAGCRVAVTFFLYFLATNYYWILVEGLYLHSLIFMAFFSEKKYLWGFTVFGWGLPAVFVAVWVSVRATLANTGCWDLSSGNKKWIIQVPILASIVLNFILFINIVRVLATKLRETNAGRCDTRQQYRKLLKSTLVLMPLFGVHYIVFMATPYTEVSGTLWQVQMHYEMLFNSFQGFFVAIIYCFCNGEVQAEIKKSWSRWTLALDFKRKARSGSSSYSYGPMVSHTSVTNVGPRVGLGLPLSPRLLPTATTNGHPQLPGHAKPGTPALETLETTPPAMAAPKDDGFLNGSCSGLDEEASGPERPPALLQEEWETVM
assay-info: cell-based or functional assay
Positions of bridges follow the written chain, without caps; N, C: chain ends. Non-standard residues stand in square brackets, D forms with d. No end group written: not given here. hArg = N=C(N)NCCCC[C@H](N)C(=O)O
# label = Condition met if cAMP EC50 < 30 µM else Condition not met

{"columns": ["binder", "answer-label"],
 "data": [
  ["AVAEIQLMHQ[hArg]AKW-NH2 (N-terminus assumed; SMILES CC[C@H](C)[C@H](NC(=O)[C@H](CCC(=O)O)NC(=O)[C@H](C)NC(=O)[C@@H](NC(=O)[C@H](C)N)C(C)C)C(=O)N[C@@H](CCC(N)=O)C(=O)N[C@@H](CC(C)C)C(=O)N[C@@H](CCSC)C(=O)N[C@@H](Cc1c[nH]cn1)C(=O)N[C@@H](CCC(N)=O)C(=O)N[C@@H](CCCCNC(=N)N)C(=O)N[C@@H](C)C(=O)N[C@@H](CCCCN)C(=O)N[C@@H](Cc1c[nH]c2ccccc12)C(N)=O)", "Condition met"]
]}

Please let me know if AVAEIELMHK[hArg]AKW-NH2 (N-terminus assumed; SMILES CC[C@H](C)[C@H](NC(=O)[C@H](CCC(=O)O)NC(=O)[C@H](C)NC(=O)[C@@H](NC(=O)[C@H](C)N)C(C)C)C(=O)N[C@@H](CCC(=O)O)C(=O)N[C@@H](CC(C)C)C(=O)N[C@@H](CCSC)C(=O)N[C@@H](Cc1c[nH]cn1)C(=O)N[C@@H](CCCCN)C(=O)N[C@@H](CCCCNC(=N)N)C(=O)N[C@@H](C)C(=O)N[C@@H](CCCCN)C(=O)N[C@@H](Cc1c[nH]c2ccccc12)C(N)=O) [[Glu^6, Lys^10]PTH(1-14) (linear)] shows cAMP EC50 below 30 µM.
Condition not met

Check AVAEIKLMHE[hArg]AKW-NH2 (N-terminus assumed; SMILES CC[C@H](C)[C@H](NC(=O)[C@H](CCC(=O)O)NC(=O)[C@H](C)NC(=O)[C@@H](NC(=O)[C@H](C)N)C(C)C)C(=O)N[C@@H](CCCCN)C(=O)N[C@@H](CC(C)C)C(=O)N[C@@H](CCSC)C(=O)N[C@@H](Cc1c[nH]cn1)C(=O)N[C@@H](CCC(=O)O)C(=O)N[C@@H](CCCCNC(=N)N)C(=O)N[C@@H](C)C(=O)N[C@@H](CCCCN)C(=O)N[C@@H](Cc1c[nH]c2ccccc12)C(N)=O) [[Lys^6, Glu^10]PTH(1-14)] too.
Condition not met

Check AVAEIELMHK[hArg]AKW-NH2 (lactam 6-10; N-terminus assumed; SMILES CC[C@H](C)[C@H](NC(=O)[C@H](CCC(=O)O)NC(=O)[C@H](C)NC(=O)[C@@H](NC(=O)[C@H](C)N)C(C)C)C(=O)N[C@H]1CCC(=O)NCCCC[C@@H](C(=O)N[C@@H](CCCCNC(=N)N)C(=O)N[C@@H](C)C(=O)N[C@@H](CCCCN)C(=O)N[C@@H](Cc2c[nH]c3ccccc23)C(N)=O)NC(=O)[C@H](Cc2c[nH]cn2)NC(=O)[C@H](CCSC)NC(=O)[C@H](CC(C)C)NC1=O) [[(Glu^6, Lys^10)lac.]PTH(1-14), cyclized via a 6-10 lactam bridge] too.
Condition met

Check AVAEIKLMHE[hArg]AKW-NH2 (lactam 6-10; N-terminus assumed; SMILES CC[C@H](C)[C@H](NC(=O)[C@H](CCC(=O)O)NC(=O)[C@H](C)NC(=O)[C@@H](NC(=O)[C@H](C)N)C(C)C)C(=O)N[C@H]1CCCCNC(=O)CC[C@@H](C(=O)N[C@@H](CCCCNC(=N)N)C(=O)N[C@@H](C)C(=O)N[C@@H](CCCCN)C(=O)N[C@@H](Cc2c[nH]c3ccccc23)C(N)=O)NC(=O)[C@H](Cc2c[nH]cn2)NC(=O)[C@H](CCSC)NC(=O)[C@H](CC(C)C)NC1=O) [[(Lys^6, Glu^10)lac.]PTH(1-14)] too.
Condition met
